# reported pKd; entries follow
# ASSAY TARGET: B.1.617.2/Delta RBD (40592-V08H90, Sino Biologicals) (SARS-CoV-2, UniProt P0DTC2 319-541)
# PROTOCOL DESCRIPTION: BLI, biotinylated VHH on streptavidin sensor, RBD in solution
Worth noting: pKd values are minus log10 of concentrations stated in mol/L.

Below, each entry is followed by its recorded pKd result.
Specify pKd for Re5D06R28 (VHH) VHH: QVQLVESGGGLVQPGGSLRLSCAISGSTLDYYAMGWFREAPGKEREGVARWRNNDGSTNYADSVKGRFTMSRDNAKDTYYLQMNSLEPEDTADYYCAYGPLTKYGSSWHWPYEYDYWGQGTQVTVSS and stop.
10.10

Provide only the value of recorded pKd for Re5D06R15 (VHH) VHH: QVQLVESGGGLVQPGGSLRLSCAASGITLDYYAMGWFREAPGKEREGVARIRNSDGSTNYADSVKGRFTMSRDNAKDTYYLQMNSLEPEDTADYYCAYGPLTKYGSSWYWPYEYDYWGQGTQVTVSS
10.52

Note down pKd recorded for Re9B09 (VHH) VHH: QVQLVESGGGLVQPGGSLRLSCAASGFTLDYYAIGWFRQAPGKEREGVSRISSSDGSTDYADSVKGRFTISRDNAKNTVYLQMNSLKPEDTAVYYCATVPGTYYSGNWYYTWHPEAVDYWGKGTQVTVSS
10.00

Here's the next entry for you.
Check the records and state pKd for Re5F10 (VHH) VHH: QVQLVESGGGLVQPGGSLRLSCVASGFTFSSFAMGWYRQAPGKECEWVATITITGGSTNYADSVKGRFTISRDNAKNTVYLQMNSLKPEDTAVYYCNPDPGCRRGQGTQVTVSS
10.40
